System: HEK-293T
Experiment: Incucyte cell viability with HEK293T; further: unitless GR value; below 1 slowed growth and below 0 cell loss
Format: toxicity, cell-based
Conditions: human, 12 h, 10 µM, compound concentration 10 uM, replicate number 1
Label key: class 1 means Growth Rate under 0.4; class 0 means Growth Rate of 0.4 or more.

// known answers, use as guide
Compound	Class
CCc1ncnc(N2CCN(C(C)=O)CC2)c1C#Cc1ccc(N)nc1.Cl.Cl	class 1
CCOC(=O)N1CCC(c2cc(O)n3nc(C)c(-c4ccc(F)cc4)c3n2)CC1	class 0
C#Cc1cnc2[nH]cc(-c3cccc4c3CCN4C(=O)[C@@H]3CCCN3C#N)c2c1	class 1
CC(C)(C)S(=O)(=O)c1ccc2nccc(Nc3n[nH]c4ccc(F)cc34)c2c1	class 1
CC(=O)Nc1nc(CN2CCC[C@H](Cc3cc(C)nc(C)c3)C2)cs1 [JNJ-73924149]	class 0
CCCCc1oc2ccccc2c1C(=O)c1cc(I)c(OCCN(CC)CC)c(I)c1.Cl [AMIODARONE HYDROCHLORIDE]	class 1

Below 0.4 on Growth Rate? Entry CCS(=O)(=O)c1ccc(OC)c(Nc2ncc(-c3cccc(F)c3)o2)c1 [GW621970X]
class 1

Below 0.4 on Growth Rate? Entry "O=C(Nc1ccc(-n2nc(C(F)(F)F)cc2C(F)(F)F)cc1)c1ccncc1F"
class 1

Below 0.4 on Growth Rate? Entry "NC(=O)c1ccc(-c2nc(-c3ccc4c(c3)OCCO4)c(-c3ccccn3)[nH]2)cc1"
class 0

Below 0.4 on Growth Rate? Entry CCOC(=O)C1=C[C@]2(CC)CCCN3CCc4c(n1c1ccccc41)[C@@H]32 [VINPOCETINE]
class 0

Below 0.4 on Growth Rate? Entry CC/C(=C(\c1ccc(O)cc1)c1ccc(OCCN(C)C)cc1)c1ccccc1 [AFIMOXIFENE]
class 1

Below 0.4 on Growth Rate? Entry "Cl.O=C(O)CCCN1CCC[C@H]1COc1ccc(Oc2ccc(Cl)cc2)cc1"
class 0

Below 0.4 on Growth Rate? Entry OC(CN1CCC(Cc2ccc(F)cc2)CC1)c1ccc(Cl)cc1 (stereo not drawn) [ELIPRODIL]
class 0

Below 0.4 on Growth Rate? Entry N#CN1CC[C@@H](C(=O)Nc2nc3c(s2)CN(C(=O)CN=[N+]=[N-])CC3)C1 [JYQ88]
class 0

Below 0.4 on Growth Rate? Entry "CN(C(=O)c1ccccc1)c1ccc2c(c1)nc(NC(=O)c1ccc(Br)s1)n2CCC(N)=O"
class 1

----------
Listed here are molecules together with their documented Growth Rate.
Test system: U2OS
Assay: Incucyte cell viability with U2OS; further: unitless GR value; below 1 slowed growth and below 0 cell loss
Format: toxicity, cell-based
Conditions: human, 12 h, 10 µM, compound concentration 10 uM, replicate number 1
Numbered stars: 1 amine (or outer) side, 2 acyl side, 3 side chain; on linkers, the order of the positions; unused ones are H or OH. Bridge positions count the residues as written; N and C are the ends. Square brackets hold non-standard residues; d marks the D form. Peptide text beside a SMILES is read from it. I, II: the chains in the order shown. Hexamethylenediamine = C(CCCN[*:2])CCN[*:1]; Dip = N[C@H](C(=O)O)C(c1ccccc1)c1ccccc1; Chg = N[C@H](C(=O)O)C1CCCCC1; NMeA = CN[C@@H](C)C(=O)O

Molecule	Growth Rate
Cc1cc([N+](=O)[O-])c(NS(=O)(=O)c2cccc(C(=O)O)c2)cc1-c1cccnc1	0.39

Would you mind telling me what Growth Rate value was observed for "CCc1cc2c(cc1-c1cccc(S(=O)(=O)F)c1)C(C)(C)c1[nH]c3cc(C#N)ccc3c1C2=O" ?
0.52

Would you mind telling me what Growth Rate value was observed for "COCCNc1cc(NC(=O)N2CCCc3cc(CN4CCN(C)CC4=O)c(C=O)nc32)ncc1C#N" ?
0.86

Would you mind telling me what Growth Rate value was observed for "Cc1cc2c(-c3ccco3)cnc(N[C@@H]3CCN(C)C[C@H]3C(=O)NC3CCCCC3)c2[nH]c1=O" ?
1

Would you mind telling me what Growth Rate value was observed for COc1ccc(CC(=O)NC(N/C(=N/C#N)Nc2cccc3ncccc23)C(C)(C)C)cc1OC (configuration not stated) ?
0.96

Would you mind telling me what Growth Rate value was observed for CN[C@@H](C)C(=O)N[C@H](C(=O)N1CCC[C@H]1C(=O)N[C@H](C(=O)NCCCCCCNC(=O)[C@@H](NC(=O)[C@@H]1CCCN1C(=O)[C@@H](NC(=O)[C@H](C)NC)C1CCCCC1)C(c1ccccc1)c1ccccc1)C(c1ccccc1)c1ccccc1)C1CCCCC1 (I: H-[NMeA][Chg]P[Dip] / II: H-[NMeA][Chg]P[Dip]; linker I:C-II:C via Hexamethylenediamine) ?
-0.41

Would you mind telling me what Growth Rate value was observed for "COc1ccc(F)c(F)c1C(=O)c1cnc(NC2CCN(S(C)(=O)=O)CC2)nc1N" ?
0.73
